Where do the numbers come from? From patent US20090111801A1.

target: 5HT-Transporter (Homo sapiens); construct: Human platelet membranes (Oceanix Biosciences Corporation, Hanover, Md., USA) were thawed; tissue Oceanix Biosciences Corporation, Hanover, Md., USA; host or cells: human platelet membranes; assay: Binding experiment for the 5HT-transporter ([3H]paroxetine, human platelet membranes); details: [3H]paroxetine 0.5 nM, read-out: h-5HTT pIC50 (converted)
Sequence (P31645 whole entry): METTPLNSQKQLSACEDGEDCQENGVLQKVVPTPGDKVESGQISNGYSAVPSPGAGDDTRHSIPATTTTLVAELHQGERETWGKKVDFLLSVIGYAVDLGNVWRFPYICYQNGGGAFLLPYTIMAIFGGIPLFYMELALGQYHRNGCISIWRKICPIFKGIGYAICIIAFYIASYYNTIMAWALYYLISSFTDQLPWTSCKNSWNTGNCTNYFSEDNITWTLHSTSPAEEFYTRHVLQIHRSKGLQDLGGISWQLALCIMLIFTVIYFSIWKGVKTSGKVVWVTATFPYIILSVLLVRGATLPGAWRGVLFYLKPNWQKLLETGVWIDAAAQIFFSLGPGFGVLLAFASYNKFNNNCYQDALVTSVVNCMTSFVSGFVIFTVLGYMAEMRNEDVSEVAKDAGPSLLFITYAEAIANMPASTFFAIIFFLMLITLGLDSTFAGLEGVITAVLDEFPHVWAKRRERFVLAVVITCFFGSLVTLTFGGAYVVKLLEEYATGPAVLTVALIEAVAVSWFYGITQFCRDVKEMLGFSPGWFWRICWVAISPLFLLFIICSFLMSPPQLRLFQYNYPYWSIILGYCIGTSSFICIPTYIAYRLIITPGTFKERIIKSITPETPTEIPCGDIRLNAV
ENDPOINT LABEL: IC50 (nM)

Worked set:
[[record]]
compound = "C/C(=C\\c1ccccc1)CN1CCC(Nc2nccn(-c3cccc(NCc4ccccc4)c3)c2=O)CC1"
assay_result = 251

[[record]]
compound = "C/C(=C\\c1ccccc1)CN1CCN(c2nccn(Cc3ccc(CN)cc3)c2=O)CC1"
assay_result = 1000


[a] C/C(=C\c1ccccc1)CN1CCC(Nc2nccn(CC(=O)c3ccc(N4CCCC4)cc3)c2=O)CC1
[b] C/C(=C\c1ccccc1)CN1CCC(Nc2nccn(Cc3ccc(CN)cc3)c2=O)CC1 [1-6]
[c] C/C(=C\c1ccccc1)CN1CCC(Nc2nccn(-c3cccc(NC(=O)CC4CCCC4)c3)c2=O)CC1
[d] C/C(=C\c1ccccc1)CN1CCC(Nc2nccn(CCCN3C(=O)c4ccccc4C3=O)c2=O)CC1
[e] COc1ccc(-n2ccnc(NC3CCN(C/C(C)=C/c4ccccc4)CC3)c2=O)cc1
Thanks in advance: please rank these 5 entries by IC50, highest to lowest. Write the labels out in the order the request specifies.
a, c, b, d, e
(a: 1260 nM, c: 631 nM, b: 398 nM, d: 126 nM, e: 50.1 nM)
